Attribution: ChEMBL document CHEMBL1143050

Hi there, I'd appreciate the recorded LogP app for every entry that follows.
- ASSAY NAME: Permeability coefficient through artificial membrane in presence of stirred water layer
- CONDITION PARAMETERS: artificial membrane

Examples with answers:
# COMPOUND, LogP app
rows = [
    ("CCNc1nc(Cl)nc(NC(C)C)n1", -4.14),
    ("C=CCc1ccccc1OCC(O)CNC(C)C (stereo not drawn)", -4.21),
    ("COc1nn(CSP(=S)(OC)OC)c(=O)s1", -4.33),
    ("O=[N+]([O-])c1cc(Cl)ccc1Cl", -4.09),
    ("CC(=O)Nc1ccc(OCC(O)CNC(C)C)cc1 (stereo not drawn)", -6.43),
    ("c1ccc(Nc2ccccc2)cc1", -4.82),
]

Go through the items and report each one's LogP app.
1. Cc1ccc(O)c(C)c1
2. CC(CCc1ccccc1)NCC(O)c1ccc(O)c(C(N)=O)c1 (stereo not drawn)
3. CCC(C)c1ccccc1OC(=O)NC (stereo not drawn)
4. COCCc1ccc(OCC(O)CNC(C)C)cc1 (stereo not drawn)
5. CCOP(=S)(OCC)Oc1cc(C)nc(C(C)C)n1 [DIMPYLATE]
6. C[C@]12CC[C@H]3[C@@H](CCC4=CC(=O)CC[C@@]43C)[C@@H]1CC[C@@H]2O

Output:
-3.58
-5.25
-3.88
-4.84
-4.51
-3.87

For each of the compounds below, note its LogP app.
1. O=[N+]([O-])NC1=NCCN1Cc1ccc(Cl)nc1
2. Cc1ccccc1O
3. Oc1ccccc1Cl
4. CCc1ccc(C)nc1

Output:
-5.31
-3.53
-4.82
-4.89

State the recorded LogP app for every item in the following list.
1. O=[N+]([O-])c1cccc(O)c1
2. CC(C)(C)NCC(O)COc1cccc2c1C[C@H](O)[C@H](O)C2 (stereo partly drawn)

Output:
1. -4.16
2. -4.49

Here are 7 compounds. What values of LogP app were reported for them?
1. Nc1cccc([N+](=O)[O-])c1
2. N#Cc1ccc(O)cc1
3. O=C1NC(=O)C(c2ccccc2)(c2ccccc2)N1
4. Nc1ccccc1Cl
5. Nc1cccc(Cl)c1
6. CCN(CC)C(=O)SCc1ccc(Cl)cc1
7. CC(C)OP(=O)(OC(C)C)SCc1ccccc1

Output:
-3.7
-4.65
-4.93
-3.63
-3.58
-4.03
-3.44
